Measurement target: T1, recombinant rat MASP1 active protease (amino acids 302-704, C-terminal His Tag) (rat, UniProt Q8CHN8 302-704)
T1 sequence: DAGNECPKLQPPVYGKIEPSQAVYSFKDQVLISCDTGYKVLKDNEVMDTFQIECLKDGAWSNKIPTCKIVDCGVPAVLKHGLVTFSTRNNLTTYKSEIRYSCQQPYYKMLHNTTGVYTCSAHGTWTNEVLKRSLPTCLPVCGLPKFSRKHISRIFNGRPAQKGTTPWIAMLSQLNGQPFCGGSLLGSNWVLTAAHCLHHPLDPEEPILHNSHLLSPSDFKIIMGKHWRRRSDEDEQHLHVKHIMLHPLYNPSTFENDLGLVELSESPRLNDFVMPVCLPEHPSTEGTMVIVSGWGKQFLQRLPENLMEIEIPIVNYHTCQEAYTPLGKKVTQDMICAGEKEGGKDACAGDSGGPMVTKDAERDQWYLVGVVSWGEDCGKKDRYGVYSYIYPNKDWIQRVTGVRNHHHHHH
Protocol summary: cell-based or functional assay
Bridge positions count the residues as written; N and C are the ends. Square brackets hold non-standard residues; d marks the D form. Ends that are not written are not given here. Oic = O=C(O)[C@@H]1C[C@@H]2CCCC[C@@H]2N1; PEG7 = NCCOCCOCCOCCOCCOCCOCCOCCC(=O)O; aIle = CC[C@@H](C)[C@H](N)C(=O)O; Pen = CC(C)(S)[C@H](N)C(=O)O; NMeC = CN[C@@H](CS)C(=O)O; Orn = NCCC[C@H](N)C(=O)O; Sar = CNCC(=O)O
Listing: rat MASP1 IC50 of selected binders

[
  {
    "Binder": "[Sar]ICSRSLPPIC[aIle]PD-NH2 (disulfide 3-11; N-terminus assumed; SMILES CC[C@@H](C)[C@H](NC(=O)[C@@H]1CSSC[C@H](NC(=O)[C@@H](NC(=O)CNC)[C@@H](C)CC)C(=O)N[C@@H](CO)C(=O)N[C@@H](CCCNC(=N)N)C(=O)N[C@@H](CO)C(=O)N[C@@H](CC(C)C)C(=O)N2CCC[C@H]2C(=O)N2CCC[C@H]2C(=O)N[C@@H]([C@@H](C)CC)C(=O)N1)C(=O)N1CCC[C@H]1C(=O)N[C@@H](CC(=O)O)C(N)=O) [Example 277: ((N-Me)G)-IC+SRSLPPIC+(allo-I)-PD-NH2]",
    "rat MASP1 IC50 (nM)": 190
  },
  {
    "Binder": "AICSRSLP[Oic]I[NMeC]IPD-NH2 (disulfide 3-11; N-terminus assumed; SMILES CC[C@H](C)[C@H](NC(=O)[C@H](C)N)C(=O)N[C@H]1CSSC[C@@H](C(=O)N[C@H](C(=O)N2CCC[C@H]2C(=O)N[C@@H](CC(=O)O)C(N)=O)[C@@H](C)CC)N(C)C(=O)[C@H]([C@@H](C)CC)NC(=O)[C@@H]2C[C@@H]3CCCC[C@@H]3N2C(=O)[C@@H]2CCCN2C(=O)[C@H](CC(C)C)NC(=O)[C@H](CO)NC(=O)[C@H](CCCNC(=N)N)NC(=O)[C@H](CO)NC1=O) [Example 185: AIC+SRSLP-(Oic)-I-((N-Me)C)+IPD-NH2]",
    "rat MASP1 IC50 (nM)": 57
  },
  {
    "Binder": "[Orn]ICSRSLP[Oic]I[Pen]IPD-OH (disulfide 3-11; N-terminus assumed; SMILES CC[C@H](C)[C@H](NC(=O)[C@@H](N)CCCN)C(=O)N[C@H]1CSSC(C)(C)[C@@H](C(=O)N[C@H](C(=O)N2CCC[C@H]2C(=O)N[C@@H](CC(=O)O)C(=O)O)[C@@H](C)CC)NC(=O)[C@H]([C@@H](C)CC)NC(=O)[C@@H]2C[C@@H]3CCCC[C@@H]3N2C(=O)[C@@H]2CCCN2C(=O)[C@H](CC(C)C)NC(=O)[C@H](CO)NC(=O)[C@H](CCCNC(=N)N)NC(=O)[C@H](CO)NC1=O) [Example 469: (Orn)-IC+SRSLP-(Oic)-I-(Pen)+IPD-OH]",
    "rat MASP1 IC50 (nM)": 120
  },
  {
    "Binder": "[Sar]ICSRSLP[Oic]I[Pen]IP[PEG7]-NH2 (disulfide 3-11; N-terminus assumed; SMILES CC[C@H](C)[C@H](NC(=O)CNC)C(=O)N[C@H]1CSSC(C)(C)[C@@H](C(=O)N[C@H](C(=O)N2CCC[C@H]2C(=O)NCCOCCOCCOCCOCCOCCOCCOCCC(N)=O)[C@@H](C)CC)NC(=O)[C@H]([C@@H](C)CC)NC(=O)[C@@H]2C[C@@H]3CCCC[C@@H]3N2C(=O)[C@@H]2CCCN2C(=O)[C@H](CC(C)C)NC(=O)[C@H](CO)NC(=O)[C@H](CCCNC(=N)N)NC(=O)[C@H](CO)NC1=O) [Example 150: ((N-Me)G)-IC+SRSLP-(Oic)-I-(Pen)+IP-(PEG7(25 atoms))-NH2]",
    "rat MASP1 IC50 (nM)": 120
  }
]
